# Experimental system: Stb5 (UniProt P38699)
# Sequence: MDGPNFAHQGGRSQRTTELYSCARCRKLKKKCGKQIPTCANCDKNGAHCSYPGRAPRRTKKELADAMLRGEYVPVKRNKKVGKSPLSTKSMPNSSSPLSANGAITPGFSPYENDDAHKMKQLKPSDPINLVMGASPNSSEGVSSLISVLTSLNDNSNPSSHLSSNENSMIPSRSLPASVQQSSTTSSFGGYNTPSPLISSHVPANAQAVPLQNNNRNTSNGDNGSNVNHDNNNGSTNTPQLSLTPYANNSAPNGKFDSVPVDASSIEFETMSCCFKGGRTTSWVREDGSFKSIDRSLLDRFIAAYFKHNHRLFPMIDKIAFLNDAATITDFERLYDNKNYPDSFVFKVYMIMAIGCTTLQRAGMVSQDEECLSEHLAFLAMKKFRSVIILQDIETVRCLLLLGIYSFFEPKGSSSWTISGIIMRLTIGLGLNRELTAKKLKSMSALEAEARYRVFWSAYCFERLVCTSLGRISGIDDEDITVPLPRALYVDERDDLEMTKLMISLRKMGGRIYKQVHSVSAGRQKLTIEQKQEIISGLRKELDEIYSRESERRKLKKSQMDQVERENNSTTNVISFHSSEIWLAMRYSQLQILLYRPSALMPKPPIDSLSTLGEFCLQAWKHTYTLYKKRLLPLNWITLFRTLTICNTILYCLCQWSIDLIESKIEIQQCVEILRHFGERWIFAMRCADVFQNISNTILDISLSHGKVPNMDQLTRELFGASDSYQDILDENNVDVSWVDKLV
# Assay remarks: PBM E-score (8-mer binding enrichment) (E-score (-0.5 to 0.5)); higher = stronger / more preferred TF binding
# Setup conditions: protein concentration: 200 nM; construct: GST-full length
Whole data set: some 33,000 sequences, median “E-score (-0.5 to 0.5)” near -0.054, cut for the highest 2% near 0.35. Shown is part of a subset that was picked to be rich in the highest values.
Assay metric: PBM E-score
When you answer, write just the number.

INPUT: Requested read-out PBM E-score, target or system Stb5 (UniProt P38699), entry CACGCCCG
OUTPUT: 0.0876

INPUT: Next sequence: TCGCTAGA
OUTPUT: -0.243

INPUT: Same read-out for AGGTGTCA ?
OUTPUT: 0.12

INPUT: Entry to check: GGGTGTAA
OUTPUT: 0.251

INPUT: Try the sequence CCCACCGC
OUTPUT: 0.221

INPUT: Let us now turn to CCCTATAG
OUTPUT: -0.104

INPUT: Please do the same for CCCACCGA as well.
OUTPUT: 0.118

INPUT: Try CCCTGCAG next.
OUTPUT: -0.0201

INPUT: Note, next up: ACCACCGG
OUTPUT: 0.406

INPUT: Moving on to ACCACCAT
OUTPUT: -0.138

INPUT: And the next one, ACCACCGT ?
OUTPUT: 0.354

INPUT: Param item: ACCACCAG
OUTPUT: -0.148

INPUT: Please answer likewise for GCACCGCA
OUTPUT: 0.361

INPUT: Please do the same for GCACCGTA as well.
OUTPUT: 0.248

INPUT: Follow-up item: ACCACCGA
OUTPUT: 0.357

INPUT: One more sequence: ATAAGTAC
OUTPUT: 0.133

INPUT: Now consider CGGTGTAA .
OUTPUT: 0.438

INPUT: Next sequence up: CAACACTG
OUTPUT: -0.305

INPUT: Thanks! And GGACCGCA ?
OUTPUT: 0.188

INPUT: Same thing, different sequence: ACCACCCT
OUTPUT: -0.168

INPUT: Now try GAATGAAA .
OUTPUT: 0.0556

INPUT: Next sequence: ACCCATCG
OUTPUT: 0.1
